- Tested on: S. epidermidis
- ASSAY SUMMARY: Broth dilution MIC/MBC, BT-antibiotic combinations
- Type: cell-based, Staphylococcus epidermidis
- CONDITION DESCRIPTION: S. epidermidis S2400-1; 0.1 μg/ml BisEDT
MEASURED ATTRIBUTE: Δ (0.1 BE), MBC
A bare number is all that is needed in reply.

compound="COc1c(N2CCNC(C)C2)c(F)cc2c(=O)c(C(=O)O)cn(C3CC3)c12 (stereo not shown)" measured_attribute="Δ (0.1 BE), MBC" reported_result=2.00
compound=CCOc1ccc2ccccc2c1C(=O)N[C@@H]1C(=O)N2[C@@H]1SC(C)(C)[C@@H]2C(=O)O measured_attribute="Δ (0.1 BE), MBC" reported_result=2.00
compound=CO[C@H]1/C=C/O[C@@]2(C)Oc3c(C)c(O)c4c(O)c(c(/C=N/N5CCN(C)CC5)c(O)c4c3C2=O)NC(=O)/C(C)=C\C=C\[C@H](C)[C@H](O)[C@@H](C)[C@@H](O)[C@@H](C)[C@H](OC(C)=O)[C@@H]1C measured_attribute="Δ (0.1 BE), MBC" reported_result=0.43

Request: Field request: Δ (0.1 BE), MBC | item: "Cc1nnc(SCC2=C(C(=O)O)N3C(=O)[C@@H](NC(=O)Cn4cnnn4)[C@H]3SC2)s1"
Response: 4.80

---

- Test system: Acinetobacter baumanii
- ASSAY SUMMARY: Single-point BisEDT-antibiotic combination FICI
- Type: cell-based
- CONDITION DESCRIPTION: Abau 2594
Each record here notes measured FICI, single-point BisEDT-antibiotic combination.
A bare number is all that is needed in reply.

molecule="C[C@@H](O)[C@H]1C(=O)N2C(C(=O)O)=C(SCCN=CN)C[C@H]12 [Imipenem]" reported_result=0.81
molecule="NC[C@H]1O[C@H](O[C@H]2[C@H](O)[C@@H](O[C@H]3O[C@H](CO)[C@@H](O)[C@H](N)[C@H]3O)[C@H](N)C[C@@H]2N)[C@H](N)C[C@@H]1O [Tobramycin]" reported_result=1.12

Let us move to another entry and its FICI, single-point BisEDT-antibiotic combination.
Request: Field request: FICI, single-point BisEDT-antibiotic combination | item: CO/N=C(\C(=O)N[C@@H]1C(=O)N2C(C(=O)[O-])=C(C[N+]3(C)CCCC3)CS[C@H]12)c1csc(N)n1 [Cefepime]
Response: 0.71

---

- Test system: Staphylococcus aureus (SA, MRSA)
- ASSAY SUMMARY: Single-point BisEDT-antibiotic combination FICI
- Type: cell-based
- CONDITION DESCRIPTION: SA 100
Each record here notes measured FICI, single-point BisEDT-antibiotic combination.
A bare number is all that is needed in reply.

Here is how some compounds turned out for FICI, single-point BisEDT-antibiotic combination.
item_smiles=CN(C)c1ccc(O)c2c1C[C@H]1C[C@H]3[C@H](N(C)C)C(O)=C(C(N)=O)C(=O)[C@@]3(O)C(O)=C1C2=O reported_result=1.09
item_smiles=C[C@H]1COc2c(N3CCN(C)CC3)c(F)cc3c(=O)c(C(=O)O)cn1c23 reported_result=1.23
item_smiles=CC(=O)NC[C@H]1CN(c2ccc(N3CCOCC3)c(F)c2)C(=O)O1 reported_result=1.23
item_smiles=NC[C@H]1O[C@H](O[C@H]2[C@H](O)[C@@H](O[C@H]3O[C@H](CO)[C@@H](O)[C@H](N)[C@H]3O)[C@H](N)C[C@@H]2N)[C@H](N)C[C@@H]1O reported_result=0.73

Let us move to another entry and its FICI, single-point BisEDT-antibiotic combination.
Request: Field request: FICI, single-point BisEDT-antibiotic combination | item: "CO/N=C(\C(=O)N[C@@H]1C(=O)N2C(C(=O)O)=C(COC(C)=O)CS[C@H]12)c1csc(N)n1"
Response: 1.11

Where these numbers come from: patent US9408393B2
